Data provenance is PubChem BioAssay AID1159580.

Quick list: normalized growth per entry.
assay: chemical genetic growth profiling, strain panel (AID 1159580);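 also: tested at 20 µM; growth read once vehicle control cultures reached saturation at 30 °C; 1 = growth at the plate median or of vehicle wells; lower values mean less growth of the strain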; conditions: S. cerevisiae deletion strains, growth OD, locus YOL136C, strain PFK27, stronger effect = lower value
The campaign covered roughly 5,500 compounds. About 2,000 (36%) were called active. Inconclusive results (about 18%) are left out. The list shows a part of the results.
Give the value as a plain number.

The following compounds have reported results that may help.
# Compound, normalized growth
records = [
    ("COc1cccc(NC(=S)NC2CC(C)CC(C)(C)C2)c1 (stereo unspecified)", 0.964),
    ("Cc1ccc(C)c(CSc2nc(C3CCCCC3)c(C#N)c(=O)[nH]2)c1", 1.01),
    ("C=CCc1c(CCC)nc(-c2ccccn2)[nH]c1=O", 0.883),
]

Data point: Cc1ccc(S(=O)(=O)n2c(Sc3ccc([N+](=O)[O-])cc3[N+](=O)[O-])nc3cc(C)ccc32)cc1 ; normalized growth = 0.919

Please fill in: normalized growth reported for S=C(NNC(=S)NC1CC2C=CC1C2)Nc1ccc(Br)c(Cl)c1 (stereo unspecified) = 0.964

Record Cc1nc(-c2ccccn2)nc(SCc2ccccc2)c1Cl , field normalized growth: 0.834

Entry O=C(NCCc1ccncc1)c1ccc(Cl)c(Cl)c1 — recorded normalized growth = 0.945

# normalized growth (compound: CCCc1nc(-c2ccccn2)[nH]c(=O)c1CC1CC1 ) is 0.959

Form field normalized growth, entry COC(=O)c1cnn(-c2c(Cl)cccc2Cl)c1C=C(C#N)C#N : 0.969

Sample Cc1oc(C(C)(C)C)cc1-c1cc(N)n(-c2ccc(I)cc2)n1 ; normalized growth observed: 0.959

O=C(N/N=C\c1cc(Br)ccc1O)c1ccccc1Oc1ccccc1 yielded normalized growth of 0.909

###

Catalogue of compounds with associated normalized growth
test: chemical genetic growth profiling, strain panel (AID 1159580);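 also: tested at 20 µM; growth read once vehicle control cultures reached saturation at 30 °C; 1 = growth at the plate median or of vehicle wells; lower values mean less growth of the strain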; conditions: S. cerevisiae deletion strains, growth OD, locus YMR277W, strain FCP1, stronger effect = lower value
Hit rate of the full screen: of about 5,500 compounds, about 2,000 (36%) were called active. About 18% were inconclusive and are not listed. This is one part of the list.
Just the number.

# Compound, normalized growth
measured = [
    ("CCCc1nc(-c2ccccn2)[nH]c(=O)c1CC1CC1", 0.953),
    ("C=CCc1c(CCC)nc(-c2ccccn2)[nH]c1=O", 0.944),
    ("Cc1ccc(S(=O)(=O)n2c(Sc3ccc([N+](=O)[O-])cc3[N+](=O)[O-])nc3cc(C)ccc32)cc1", 0.988),
    ("Cc1nc(-c2cccnc2)nc(NCc2ccccc2)c1Cl", 0.943),
    ("Nc1ccccc1C(=O)N/N=C\\c1cc(Br)ccc1O", 0.976),
]

The recorded normalized growth for entry Cc1nc(-c2ccccn2)nc(SCc2ccccc2)c1Cl equals 0.941

Lookup result for O=C(NCC1COc2ccccc2O1)c1ccc(Cl)cc1 (stereo unspecified) ; measured normalized growth: 0.923

GET /value?item= O=S(=O)(NC(=S)Nc1ccc(Cl)c(Cl)c1)c1ccccc1 &field=normalized growth returns 1

What the record says about Fc1cccc(Cl)c1CSc1n[nH]c(-c2cc(C(F)(F)F)cc(C(F)(F)F)c2)n1 : normalized growth is 0.959

Reported normalized growth for COC(=O)c1cnn(-c2c(Cl)cccc2Cl)c1C=C(C#N)C#N was 0.949

Reported normalized growth of O=C(Nc1ccccc1Sc1ccc([N+](=O)[O-])cc1[N+](=O)[O-])C(Cl)(Cl)Cl : 0.955
